From: PubChem BioAssay AID1963839

Tested on: 817829-284-R-J1-PDC complex spheroid viability
Experiment: Anticancer human tumor 817829-284-R-J1-PDC patient-derived colon adenocarcinoma cell line growth inhibition [POLQ]
Details: compound alone; run of 11/27/2023
Below, each entry is listed with its recorded IC50.

GET /value?item= Cc1cccc(N(C)C(=O)C2C(O)CCN2c2nc(C)cc(C(F)(F)F)c2C#N)c1 (configuration not stated) &field=IC50 returns > 10 µM

Others:
GET /value?item= COC1C(OC(N)=O)C(O)C(Oc2ccc3c(O)c(NC(=O)c4ccc(O)c(CC=C(C)C)c4)c(=O)oc3c2C)OC1(C)C (configuration not stated) &field=IC50 returns > 10 µM

====

Test system: 817829-284-R-J1-PDC complex spheroid viability
Test: Anticancer human tumor 817829-284-R-J1-PDC cell line growth inhibition [POLQ];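 also: spheroids exposed to compounds for 7 days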;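 as to viability, T/C: 100% = DMSO vehicle-treated spheroids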
Settings: second compound 3.16 µM; first compound 0.001 µM; stronger effect = lower value
Procedure: Multicellular complex tumor spheroid response to Polymerase (POL) inhibitors (novobiocin, ART-558, RP6685) in combination with a variety of drugs and investigational agents in selected tumor cell lines The POL inhibitors (novobiocin, ART-558, and RP6685) were evaluated both individually and in combination with standard of care and investigational anticancer small molecules within a complex spheroid model of solid tumors. . […]
quantity-name: viability, T/C (%)
Express your answer in %, writing the number without its unit.

viability, T/C on 817829-284-R-J1-PDC complex spheroid viability for Cn1ncnc1[C@H]1c2n[nH]c(=O)c3cc(F)cc(c23)N[C@@H]1c1ccc(F)cc1 + Cc1cccc(N(C)C(=O)C2C(O)CCN2c2nc(C)cc(C(F)(F)F)c2C#N)c1 is 80

viability, T/C on 817829-284-R-J1-PDC complex spheroid viability for CC[C@@]1(O)C(=O)OCc2c1cc1n(c2=O)Cc2cc3c(CN(C)C)c(O)ccc3nc2-1 + Nc1ccc(C#CCN(C(=O)Cc2ncc(C(F)(F)F)cc2C(F)(F)F)c2ccc(F)cc2)nn1 is 94.3

viability, T/C on 817829-284-R-J1-PDC complex spheroid viability for Cn1ncnc1[C@H]1c2n[nH]c(=O)c3cc(F)cc(c23)N[C@@H]1c1ccc(F)cc1 + Nc1ccc(C#CCN(C(=O)Cc2ncc(C(F)(F)F)cc2C(F)(F)F)c2ccc(F)cc2)nn1 is 93.8

viability, T/C on 817829-284-R-J1-PDC complex spheroid viability for CC[C@@]1(O)C(=O)OCc2c1cc1n(c2=O)Cc2cc3c(CN(C)C)c(O)ccc3nc2-1 + COC1C(OC(N)=O)C(O)C(Oc2ccc3c(O)c(NC(=O)c4ccc(O)c(CC=C(C)C)c4)c(=O)oc3c2C)OC1(C)C is 78.2

viability, T/C on 817829-284-R-J1-PDC complex spheroid viability for CC[C@@]1(O)C(=O)OCc2c1cc1n(c2=O)Cc2cc3c(CN(C)C)c(O)ccc3nc2-1 + Cc1cccc(N(C)C(=O)C2C(O)CCN2c2nc(C)cc(C(F)(F)F)c2C#N)c1 is 123

viability, T/C on 817829-284-R-J1-PDC complex spheroid viability for Cn1ncnc1[C@H]1c2n[nH]c(=O)c3cc(F)cc(c23)N[C@@H]1c1ccc(F)cc1 + COC1C(OC(N)=O)C(O)C(Oc2ccc3c(O)c(NC(=O)c4ccc(O)c(CC=C(C)C)c4)c(=O)oc3c2C)OC1(C)C is 102
